Measured On: T1, rat IL-11 (rat, UniProt Q99MF5 22-199)
T1 construct: Invigate, e.g. lot #C301019-19; also called rIL11
T1 sequence: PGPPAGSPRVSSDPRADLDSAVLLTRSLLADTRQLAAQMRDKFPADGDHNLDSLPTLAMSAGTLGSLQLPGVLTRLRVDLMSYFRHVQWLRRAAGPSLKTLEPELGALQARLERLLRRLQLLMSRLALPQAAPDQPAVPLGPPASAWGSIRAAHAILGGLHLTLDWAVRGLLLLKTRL
Assay Notes: SPR, antibody captured, IL-11 as analyte
Listed next: entries and their corresponding Kd.
A bare number is not enough; add the unit after it.

Some binders with known Kd results, for comparison:
- TPP-29391 (antibody, human IgG1, V domains shown) VH: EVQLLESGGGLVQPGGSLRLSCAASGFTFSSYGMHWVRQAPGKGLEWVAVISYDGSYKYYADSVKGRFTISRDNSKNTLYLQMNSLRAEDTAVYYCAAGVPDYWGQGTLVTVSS VL: QSVLTQPPSASGTPGQRVTISCSGSSSNIGSDYDVHWYQQLPGTAPKLLIYSNNERPSGVPDRFSGSKSGTSASLAISGLRSEDEADYYCAAWDSSLYGPVFGGGTKLTVL: 0.071 nM
- TPP-29384 (antibody, human IgG1, V domains shown) VH: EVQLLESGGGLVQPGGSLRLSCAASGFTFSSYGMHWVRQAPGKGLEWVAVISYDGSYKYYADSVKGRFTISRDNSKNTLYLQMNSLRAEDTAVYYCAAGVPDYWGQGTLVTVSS VL: QSVLTQPPSASGTPGQRVTISCSGSSSNIGSGYDVHWYQQLPGTAPKLLIYSNEERPSGVPDRFSGSKSGTSASLAISGLRSEDEADYYCAAWDPSLSGPVFGGGTKLTVL: 0.18 nM

Switching to the query record.
Query: Item TPP-29394 (antibody, human IgG1, V domains shown) VH: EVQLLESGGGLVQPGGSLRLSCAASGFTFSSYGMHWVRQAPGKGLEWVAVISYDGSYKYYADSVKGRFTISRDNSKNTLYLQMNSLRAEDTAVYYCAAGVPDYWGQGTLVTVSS VL: QSVLTQPPSASGTPGQRVTISCSGSSSNIGSDYDVHWYQQLPGTAPKLLIYSNNERPSGVPDRFSGSKSGTSASLAISGLRSEDEADYYCAAWDFSLYGPVFGGGTKLTVL has what recorded Kd?
Response: 0.37 nM
